target: SARS-CoV-2 nsp14 guanine-N7-methyltransferase (Severe acute respiratory syndrome coronavirus 2, UniProt P0DTD1)
metric: IC50 (µM)
Answers are plain numbers, in µM.

molecule | metric | recorded-number
CNC(=O)c1cccc(CSC[C@H]2O[C@@H](n3cnc4c(N)ncnc43)[C@H](O)[C@@H]2O)c1 | IC50 | 2.79
Nc1ncnc2c1ncn2[C@@H]1O[C@H](CSCc2ccc(-c3ccccc3)c(C(=O)O)c2)[C@@H](O)[C@H]1O | IC50 | 0.036
Nc1ncnc2c1ncn2[C@@H]1O[C@H](CSc2ccc(Br)c(C(=O)O)c2)[C@@H](O)[C@H]1O [10c, 2-Bromo-5-((adenosyl)thio)benzoic acid] | IC50 | 0.024

Provide the reported IC50 of each entry below, same order.
1. CS(=O)(=O)Nc1cccc(CSC[C@H]2O[C@@H](n3cnc4c(N)ncnc43)[C@H](O)[C@@H]2O)c1
2. COC(=O)c1cccc(CSC[C@H]2O[C@@H](n3cnc4c(N)ncnc43)[C@H](O)[C@@H]2O)c1
3. Nc1ncnc2c1ncn2[C@@H]1O[C@H](CSCc2cc(C(=O)O)cc(-c3ccc(O)cc3)c2)[C@@H](O)[C@H]1O
4. Nc1ncnc2c1ncn2[C@@H]1O[C@H](CSCc2cccc(-c3nn[nH]n3)c2)[C@@H](O)[C@H]1O
5. Nc1ncnc2c1ncn2[C@@H]1O[C@H](CSCc2cccc(CC(=O)O)c2)[C@@H](O)[C@H]1O
6. Nc1ncnc2c1ncn2[C@@H]1O[C@H](CSCc2ccc(C(=O)O)cc2)[C@@H](O)[C@H]1O

1: 0.28; 2: 1.35; 3: 0.0042; 4: 0.34; 5: 0.68; 6: 0.5

Provide the reported IC50 of each entry below, same order.
1. Nc1ncnc2c1ncn2[C@@H]1O[C@H](CSc2ccc(Cl)c(C(=O)O)c2)[C@@H](O)[C@H]1O [10a, 2-Chloro-5-((adenosyl)thio)benzoic acid]
2. Nc1ncnc2c1ncn2[C@@H]1O[C@H](CSCc2cc(C#CCO)cc(C(=O)O)c2)[C@@H](O)[C@H]1O
3. Nc1ncnc2c1ncn2[C@@H]1O[C@H](CSc2ccc(C(=O)O)c(-c3ccccc3)c2)[C@@H](O)[C@H]1O [10f]
4. Nc1ncnc2c1ncn2[C@@H]1O[C@H](CSCc2ccc(F)c(C(=O)O)c2)[C@@H](O)[C@H]1O
5. Nc1ncnc2c1ncn2[C@@H]1O[C@H](CSCc2cccc(CO)c2)[C@@H](O)[C@H]1O

[0.02, 0.012, 0.42, 0.016, 0.74]

----------
Could you please report measured IC50 for the items listed next?
biological target: SARS-CoV-2 nsp14 guanine-N7-methyltransferase (Severe acute respiratory syndrome coronavirus 2)
Answers are plain numbers, in nM.

compound | IC50, nM
Nc1ncnc2c1ncn2[C@@H]1O[C@H](CSc2ccc(-c3ccccc3)c(C(=O)O)c2)[C@@H](O)[C@H]1O [10e] | 25
Nc1ncnc2c1ncn2[C@@H]1O[C@H](CSCc2cc(C(=O)O)cc(-c3ccccc3)c2)[C@@H](O)[C@H]1O | 0.58

// switching to the query compound
Which measured IC50 value corresponds to CNS(=O)(=O)c1cccc(CSC[C@H]2O[C@@H](n3cnc4c(N)ncnc43)[C@H](O)[C@@H]2O)c1 ?
400

----------
Could you please report measured IC50 for the items listed next?
target: SARS-CoV-2 nsp14 guanine-N7-methyltransferase (Severe acute respiratory syndrome coronavirus 2, UniProt P0DTD1)
Give bare numbers, in nM.

Past entries and their recorded results:
compound | metric | recorded-number
Nc1ncnc2c1ncn2[C@@H]1O[C@H](CSCc2cc(Cl)cc(C(=O)O)c2)[C@@H](O)[C@H]1O | IC50 | 24
COc1ccc(SC[C@H]2O[C@@H](n3cnc4c(N)ncnc43)[C@H](O)[C@@H]2O)cc1C(=O)O [10d, 2-Methoxy-5-((adenosyl)thio)benzoic acid] | IC50 | 17
Nc1ncnc2c1ncn2[C@@H]1O[C@H](CSCc2ccc(Cl)c(C(=O)O)c2)[C@@H](O)[C@H]1O | IC50 | 7.7

Provide the reported IC50 of each entry below, same order.
1. CS(=O)(=O)c1cccc(CSC[C@H]2O[C@@H](n3cnc4c(N)ncnc43)[C@H](O)[C@@H]2O)c1
2. Nc1ncnc2c1ncn2[C@@H]1O[C@H](CSc2cc(C(=O)O)ccc2Cl)[C@@H](O)[C@H]1O [10b, 4-Chloro-5-((adenosyl)thio)benzoic acid]
3. N#Cc1cccc(CSC[C@H]2O[C@@H](n3cnc4c(N)ncnc43)[C@H](O)[C@@H]2O)c1

270
1300
351

From: paper PMC9862586
